Target: T1, cynomolgus monkey BCMA (cynomolgus monkey, UniProt A0A2K5UD97 1-53)
T1 construct: Soluble analyte in SPR; construct not described; also called cyBCMA; Cyno BCMA
T1 sequence (A0A2K5UD97 entry or part of it): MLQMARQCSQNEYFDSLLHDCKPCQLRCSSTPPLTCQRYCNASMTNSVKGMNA
Assay: SPR, IgG immobilised, 37 C
recorded_metric: koff (s⁻¹)
Number in s⁻¹, nothing else.

Give the reported koff for this binder. L3.PY/H3.AE (antibody, V domains shown, IgG) VH: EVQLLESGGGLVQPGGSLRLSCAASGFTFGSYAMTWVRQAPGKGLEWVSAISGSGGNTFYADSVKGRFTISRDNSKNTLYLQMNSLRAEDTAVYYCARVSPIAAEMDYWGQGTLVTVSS VL: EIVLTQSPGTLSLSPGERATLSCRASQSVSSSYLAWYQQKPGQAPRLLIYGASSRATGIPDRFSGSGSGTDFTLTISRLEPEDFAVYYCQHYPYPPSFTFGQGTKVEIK
0.00504

Supply reported koff belonging to this binder: L3.PY/H2.QR (antibody, V domains shown, IgG) VH: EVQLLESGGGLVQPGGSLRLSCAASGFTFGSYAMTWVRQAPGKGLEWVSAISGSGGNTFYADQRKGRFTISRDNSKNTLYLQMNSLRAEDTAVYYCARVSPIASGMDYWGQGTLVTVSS VL: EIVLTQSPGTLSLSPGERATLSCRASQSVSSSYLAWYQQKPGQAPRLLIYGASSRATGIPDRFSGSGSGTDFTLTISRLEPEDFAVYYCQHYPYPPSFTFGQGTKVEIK
0.00658

Give koff for the following binder: L3.PY/L1.PS/H2.QR (antibody, V domains shown, IgG) VH: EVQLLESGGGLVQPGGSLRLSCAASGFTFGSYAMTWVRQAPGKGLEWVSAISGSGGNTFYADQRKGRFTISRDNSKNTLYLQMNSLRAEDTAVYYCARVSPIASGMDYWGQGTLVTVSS VL: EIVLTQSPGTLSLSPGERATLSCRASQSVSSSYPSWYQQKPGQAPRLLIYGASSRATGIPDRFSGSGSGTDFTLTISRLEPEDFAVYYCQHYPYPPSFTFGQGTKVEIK
0.00067

Supply measured koff of L3.PY/L3.KY/P6E01 (antibody, V domains shown, IgG) VH: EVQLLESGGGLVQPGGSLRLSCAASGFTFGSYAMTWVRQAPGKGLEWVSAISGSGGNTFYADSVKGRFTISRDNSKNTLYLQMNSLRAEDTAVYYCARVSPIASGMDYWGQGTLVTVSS VL: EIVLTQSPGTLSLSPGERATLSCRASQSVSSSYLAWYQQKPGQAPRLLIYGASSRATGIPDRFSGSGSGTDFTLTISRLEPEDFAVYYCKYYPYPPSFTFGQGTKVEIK in your reply.
0.00502
